target: K-Ras G13C (Homo sapiens (Human), UniProt P01116+P62937, G13C); experiment: Ras-Raf (BRAF RBD) disruption / FRET / MOA assay, KRAS G13C; format: biochemical; conditions: KRAS G13C; Ras-Raf disruption/FRET/MOA assay; read-out: IC50* KRAS G13C FRET data
Sequence (P01116-2 other isoform, or with tags, fused parts or gaps G13C): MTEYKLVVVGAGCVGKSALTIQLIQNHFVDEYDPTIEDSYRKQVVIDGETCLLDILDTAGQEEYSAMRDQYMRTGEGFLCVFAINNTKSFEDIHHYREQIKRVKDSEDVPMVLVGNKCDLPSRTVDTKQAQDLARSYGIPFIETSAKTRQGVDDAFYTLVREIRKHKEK
Sequence (P62937 whole entry): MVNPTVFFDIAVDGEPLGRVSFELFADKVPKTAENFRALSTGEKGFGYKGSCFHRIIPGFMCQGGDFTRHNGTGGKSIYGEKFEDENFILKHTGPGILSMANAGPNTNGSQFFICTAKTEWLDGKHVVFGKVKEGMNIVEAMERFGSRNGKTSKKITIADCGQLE
pIC50: −log10 of the molar value.
Each item that follows carries a reported pIC50.

COMPOUND: CO[C@@H](C)c1ncccc1-c1c2c3cc(ccc3n1CC(F)(F)F)-c1csc(n1)C[C@H](NC(=O)[C@@H](COC1CN(C(=O)C#CC(C)(C)N(C)C)C1)C(C)C)C(=O)N1CCC[C@H](N1)C(=O)OCC(C)(C)C2 (atropisomer, axis not shown)
pIC50: 5.00 to 6.00
--
COMPOUND: C=CC(=O)N1CCC2(CC1)CCN([C@H](C(=O)N[C@H]1Cc3cc(O)cc(c3)-c3ccc4c(c3)c(c(-c3cccnc3[C@H](C)OC)n4CC)CC(C)(C)COC(=O)[C@@H]3CCCN(N3)C1=O)C(C)C)C2=O (atropisomer, axis not shown)
pIC50: 7.00 to 8.00
--
COMPOUND: CCn1c(-c2cnccc2COC)c2c3cc(ccc31)-c1cc(O)cc(c1)C[C@H](NC(=O)[C@H](C(C)C)N(C)C(=O)[C@H]1CCN(C(=O)C(C)(C)N(C)C)C1)C(=O)N1CCC[C@H](N1)C(=O)OCC(C)(C)C2
pIC50: 6.00 to 7.00

stdin: Given the compound CCn1c(-c2cccnc2[C@H](C)OC)c2c3cc(ccc31)-c1csc(n1)C[C@H](NC(=O)C[C@@H](C)OC1CN(C(=O)C#CC(C)(C)N(C)C)C1)C(=O)N1CCC[C@H](N1)C(=O)OCC(C)(C)C2 (atropisomer, axis not shown) , what is its reported pIC50?
stdout: 5.00 to 6.00
